Each recorded value in this set is attributed to ChEMBL document CHEMBL3877263.

Let's go through some recorded Ki values for Translocator protein (Rattus norvegicus, UniProt P16257) together.
parameter: Ki (nM)

P = Cc1cc(C)n2nc(-c3ccc(CCCF)cc3)c(CC(=O)N3CCC3)c2n1
Q = Cc1cc(C)n2nc(-c3ccc(CCCF)cc3)c(CC(=O)N3CCNCC3)c2n1
Ask | Which of the two gives a bigger number for Ki: P or Q ? When you have decided, please share the label of that item.
Reply | Q
(Q: 260 nM, P: 32 nM)

P = CCCN(C)C(=O)Cc1c(-c2ccc(CCCF)cc2)nn2c(C)cc(C)nc12
Q = Cc1cc(C)n2nc(-c3ccc(CCCF)cc3)c(CC(=O)N3CCOCC3)c2n1
Ask | Of P versus Q , which is the one with smaller reported Ki? Answer by stating the label of the chosen item.
Reply | P

a = Cc1cc(C)n2nc(-c3ccc(CCCF)cc3)c(CC(=O)N(C)C)c2n1
b = CCCN(CCC)C(=O)Cc1c(-c2ccc(CCCF)cc2)nn2c(C)cc(C)nc12
Ask | // compare measured Ki, left a , right b , return larger Indicate your choice by writing its label.
Reply | a
(a: 15 nM, b: 0.26 nM)
